Test system: MDA-MB-468 spheroids with HUVEC/MSC, viability
ASSAY TEXT: Anticancer human tumor MDA-MB-468 cell line growth inhibition [PI3K]; active = viability on the fitted dose curve at most 10% of control; inactive = the rest;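 note: spheroids exposed to agents for seven days before readout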
ASSAY CONTEXT: second compound 10 µM; first compound 3.16 µM
Classes used: t (active), f (inactive)

COMPOUND: CC(C)NCC(C(=O)N1CCN(c2ncnc3c2C(C)CC3O)CC1)c1ccc(Cl)cc1 (stereo unspecified) + CC(Nc1ncnc2nc[nH]c12)c1cc2cccc(Cl)c2c(=O)n1-c1ccccc1
GROUP LABEL: f

COMPOUND: C[C@@H](NC(=O)c1ncnc(N)c1Cl)c1ncc(C(=O)Nc2cc(C(F)(F)F)c(Cl)cn2)s1 + CC(Nc1ncnc2nc[nH]c12)c1cc2cccc(Cl)c2c(=O)n1-c1ccccc1
GROUP LABEL: f

COMPOUND: CNC(=O)c1ccc(N2C(=S)N(c3ccc(C#N)c(C(F)(F)F)c3)C(=O)C2(C)C)cc1F + CC(Nc1ncnc2nc[nH]c12)c1cc2cccc(Cl)c2c(=O)n1-c1ccccc1
GROUP LABEL: f

COMPOUND: CCCS(=O)(=O)Nc1ccc(F)c(C(=O)c2c[nH]c3ncc(-c4ccc(Cl)cc4)cc23)c1F + CC(Nc1ncnc2nc[nH]c12)c1cc2cccc(Cl)c2c(=O)n1-c1ccccc1
GROUP LABEL: f

COMPOUND: C=CC(=O)N1CCN(c2nc(=O)n(-c3c(C)ccnc3C(C)C)c3nc(-c4c(O)cccc4F)c(F)cc23)C(C)C1 (stereo unspecified) + CC(Nc1ncnc2nc[nH]c12)c1cc2cccc(Cl)c2c(=O)n1-c1ccccc1
GROUP LABEL: f

COMPOUND: C=CC(=O)N1CCN(c2nc(=O)n(-c3c(C)ccnc3C(C)C)c3nc(-c4c(O)cccc4F)c(F)cc23)C(C)C1 (stereo unspecified) + Cc1nc(NC(=O)N2CCCC2C(N)=O)sc1-c1ccnc(C(C)(C)C(F)(F)F)c1
GROUP LABEL: f

COMPOUND: CNC(=O)c1ccc(N2C(=S)N(c3ccc(C#N)c(C(F)(F)F)c3)C(=O)C2(C)C)cc1F + Cc1nc(NC(=O)N2CCCC2C(N)=O)sc1-c1ccnc(C(C)(C)C(F)(F)F)c1
GROUP LABEL: f

COMPOUND: CC1(C)CCC(CN2CCN(c3ccc(C(=O)NS(=O)(=O)c4ccc(NCC5CCOCC5)c([N+](=O)[O-])c4)c(Oc4cnc5[nH]ccc5c4)c3)CC2)=C(c2ccc(Cl)cc2)C1 + Cc1nc(NC(=O)N2CCCC2C(N)=O)sc1-c1ccnc(C(C)(C)C(F)(F)F)c1
GROUP LABEL: f

COMPOUND: CC1(C)CCC(Nc2ncc(C(F)(F)F)c(-c3c[nH]c4c(P(C)(C)=O)c(C#N)ccc34)n2)CN1 (stereo unspecified) + CC(Nc1ncnc2nc[nH]c12)c1cc2cccc(Cl)c2c(=O)n1-c1ccccc1
GROUP LABEL: t

COMPOUND: Cn1nccc1Nc1nccc(-c2ccn(C(CO)c3ccc(Cl)c(F)c3)c(=O)c2)n1 (stereo unspecified) + CC(Nc1ncnc2nc[nH]c12)c1cc2cccc(Cl)c2c(=O)n1-c1ccccc1
GROUP LABEL: f

COMPOUND: C#Cc1c(F)ccc2cc(O)cc(-c3ncc4c(N5CC6CCC(C5)N6)nc(OCC56CCCN5CC(F)C6)nc4c3F)c12 (stereo unspecified) + CC(Nc1ncnc2nc[nH]c12)c1cc2cccc(Cl)c2c(=O)n1-c1ccccc1
GROUP LABEL: f

COMPOUND: CCCS(=O)(=O)Nc1ccc(F)c(C(=O)c2c[nH]c3ncc(-c4ccc(Cl)cc4)cc23)c1F + Cc1nc(NC(=O)N2CCCC2C(N)=O)sc1-c1ccnc(C(C)(C)C(F)(F)F)c1
GROUP LABEL: f

COMPOUND: Cn1ncc(Cl)c1-c1cc(C(=O)NC(CN)Cc2cccc(F)c2)sc1Cl (stereo unspecified) + Cc1nc(NC(=O)N2CCCC2C(N)=O)sc1-c1ccnc(C(C)(C)C(F)(F)F)c1
GROUP LABEL: t

COMPOUND: CC(Cn1ccc(-c2ccc(C#N)c(Cl)c2)n1)NC(=O)c1cc(C(C)O)[nH]n1 (stereo unspecified) + CC(Nc1ncnc2nc[nH]c12)c1cc2cccc(Cl)c2c(=O)n1-c1ccccc1
GROUP LABEL: f

COMPOUND: CC1(C)CCC(CN2CCN(c3ccc(C(=O)NS(=O)(=O)c4ccc(NCC5CCOCC5)c([N+](=O)[O-])c4)c(Oc4cnc5[nH]ccc5c4)c3)CC2)=C(c2ccc(Cl)cc2)C1 + CC(Nc1ncnc2nc[nH]c12)c1cc2cccc(Cl)c2c(=O)n1-c1ccccc1
GROUP LABEL: f

COMPOUND: CC1(C)CCC(Nc2ncc(C(F)(F)F)c(-c3c[nH]c4c(P(C)(C)=O)c(C#N)ccc34)n2)CN1 (stereo unspecified) + Cc1nc(NC(=O)N2CCCC2C(N)=O)sc1-c1ccnc(C(C)(C)C(F)(F)F)c1
GROUP LABEL: t
